- System: HSV1 DNA polymerase variant
- ASSAY_DETAILS: Antiviral activity 2, plaque formation in HEL cells
- Format: cell-based, HSV-1
- CONDITION_INFO: Human alphaherpesvirus 1, HEL, 72 h, read-out: Antiviral activity: IC50, HSV1 DNA polymerase variant
IC50 reference
Just the number in µM, nothing appended.

Please review the entries below; each comes with its answer.
                                smiles_data  quantitative_result
0  Cc1c(NC(=O)OC(C)(C)C)ccc2nc(NC(C)(C)C(=O)N(C)CCc3ccccn3)oc(=O)c12                 17.1
1  Cc1c(NC(=O)OC(C)(C)C)ccc2nc(NC3(C(=O)N(C)CCc4ccncc4)CCCCC3)oc(=O)c12                  8.7
2  Cc1c(NC(=O)OC(C)(C)C)ccc2nc(N[C@@H](Cc3ccccc3)C(=O)N(C)CCc3ccccn3)oc(=O)c12                  6.9

// returns reported IC50 for input "Cc1c(NC(=O)OC(C)(C)C)ccc2nc(N(C)[C@@H](Cc3ccccc3)C(=O)NCc3ccccn3)oc(=O)c12" 14.3

###

Dear all, this message contains IC50 results, target or system HSV-1 protease (Human herpesvirus 1).
Just the number in nM, nothing appended.

Please review the entries below; each comes with its answer.
In [3]: df
Out[3]:
                                smiles_data                                system  units_of_measure  quantitative_result
0  Cc1c(NC(=O)OC(C)(C)C)ccc2nc(N[C@@H](Cc3ccccc3)C(=O)N(C)CCc3cccnc3)oc(=O)c12  HSV-1 protease (Human herpesvirus 1)                nM                  800
1  Cc1c(NC(=O)OC(C)(C)C)ccc2nc(NC3(C(=O)N(C)Cc4cccnc4)CC3)oc(=O)c12  HSV-1 protease (Human herpesvirus 1)                nM                 2300
2  Cc1ccc(C(=O)Nc2ccc3nc(NC(C)(C)C(=O)N(C)CCc4ccccn4)oc(=O)c3c2C)cc1  HSV-1 protease (Human herpesvirus 1)                nM                 3300
3  COc1ccc(C(=O)Nc2ccc3nc(NC(C)(C)C(=O)N(C)CCc4ccccn4)oc(=O)c3c2C)cc1  HSV-1 protease (Human herpesvirus 1)                nM                 1300
4  Cc1c(NC(=O)OC(C)(C)C)ccc2nc(N(C)[C@@H](Cc3ccccc3)C(=O)NCc3cccnc3)oc(=O)c12  HSV-1 protease (Human herpesvirus 1)                nM                 1000

// returns reported IC50 for input "Cc1c(NC(=O)c2ccccc2[N+](=O)[O-])ccc2nc(NC(C)(C)C(=O)N(C)CCc3ccccn3)oc(=O)c12" 4200

Entry to check: "Cc1c(NC(=O)OC(C)(C)C)ccc2nc(N(C)[C@@H](Cc3ccccc3)C(=O)NCc3ccccn3)oc(=O)c12" 1800

###

- Tested on: Vero cells
- ASSAY_DETAILS: Cytotoxicity, Vero cells, Alamar Blue
- Format: cell-based
- CONDITION_INFO: 25 μM, 20 hours
# if measured Cell viability (% of control) < 70%: Satisfied  # else: Not satisfied

The following compounds have reported results that may help.
>>> df
                                smiles_data  qualitative_label
0  Cc1c(NC(=O)OC(C)(C)C)ccc2nc(N[C@H](C(=O)N(C)CCc3cccnc3)C(C)(C)C)oc(=O)c12      Not satisfied
1  Cc1c(NC(=O)OC(C)(C)C)ccc2nc(N3CCC[C@H]3C(=O)NCc3ccncc3)oc(=O)c12      Not satisfied
2  COC(=O)c1ccc(C(=O)Nc2ccc3nc(NC(C)(C)C(=O)N(C)CCc4ccccn4)oc(=O)c3c2C)cc1      Not satisfied

For the next question, use this compound.
is_below(Cell viability (% of control), 70%) for "Cc1c(NC(=O)OC(C)(C)C)ccc2nc(N[C@@H](C)C(=O)N(C)CCc3ccncc3)oc(=O)c12" ? Not satisfied

###

- Tested on: Vero cells
- ASSAY_DETAILS: Cytotoxicity, Vero cells, Alamar Blue
- Type: cell-based
- CONDITION_INFO: 25 μM, 20 hours
OBSERVED_PROPERTY: Cell viability (% of control) (%)
Just the number in %, nothing appended.

Please review the entries below; each comes with its answer.
>>> print(df.to_string())
                                   compound              observed_property  units_of_measure  quantitative_result
0  Cc1c(NC(=O)OC(C)(C)C)ccc2nc(N[C@H](C(=O)NCc3ccncc3)C(C)C)oc(=O)c12 [Compound No.25]  Cell viability (% of control)                 %                100.0
1  Cc1c(NC(=O)OC(C)(C)C)ccc2nc(N[C@@H](CC(C)C)C(=O)NCc3ccncc3)oc(=O)c12 [Compound No.38]  Cell viability (% of control)                 %                105.0
2  Cc1c(NC(=O)OC(C)(C)C)ccc2nc(N3CCC[C@H]3C(=O)N(C)CCc3cccnc3)oc(=O)c12 [Compound No.92]  Cell viability (% of control)                 %                 87.2

// returns reported Cell viability (% of control) for input Cc1c(NC(=O)c2ccc(C(C)(C)C)cc2)ccc2nc(NC(C)(C)C(=O)N(C)CCc3ccccn3)oc(=O)c12 [Compound No.168] 16.8

Entry to check: Cc1oc(C(C)(C)C)cc1C(=O)Nc1ccc2nc(NC(C)(C)C(=O)N(C)CCc3ccccn3)oc(=O)c2c1C [Compound No.174] 30.1

Entry to check: Cc1c(NC(=O)OC(C)(C)C)ccc2nc(N[C@H](C(=O)NCc3cccnc3)C(C)(C)C)oc(=O)c12 [Compound No.33] 105.0

Entry to check: Cc1c(NC(=O)OC(C)(C)C)ccc2nc(NC(C)(C)C(=O)N(C)CCc3cccnc3)oc(=O)c12 [Compound No.19] 106.0

Entry to check: Cc1c(NC(=O)OC(C)(C)C)ccc2nc(N(C)[C@@H](Cc3ccccc3)C(=O)NCc3ccccn3)oc(=O)c12 [Compound No.22] 66.5

Entry to check: Cc1c(NC(=O)OC(C)(C)C)ccc2nc(N(C)[C@@H](C)C(=O)NCc3cccnc3)oc(=O)c12 [Compound No.72] 90.7

Entry to check: Cc1c(NC(=O)OC(C)(C)C)ccc2nc(N[C@@H](CC3CCCCC3)C(=O)NCc3ccncc3)oc(=O)c12 [Compound No.28] 70.0

Entry to check: Cc1c(NC(=O)C2CCCC2)ccc2nc(NC(C)(C)C(=O)N(C)CCc3ccccn3)oc(=O)c12 [Compound No.188] 91.7

Entry to check: Cc1c(NC(=O)OC(C)(C)C)ccc2nc(N3C[C@H](OCc4ccccc4)C[C@H]3C(=O)NCCc3ccccn3)oc(=O)c12 [Compound No.112] 84.2

Entry to check: Cc1c(NC(=O)OC(C)(C)C)ccc2nc(N[C@@H](CCc3ccccc3)C(=O)NCc3cccnc3)oc(=O)c12 [Compound No.40] 100.0

###

- Tested on: HSV-1
- ASSAY_DETAILS: Antiviral activity, HSV-1 in Vero cells, plaque method
- Format: cell-based
- CONDITION_INFO: Human alphaherpesvirus 1, 20 hours, 90% inhibition of plaque formation
OBSERVED_PROPERTY: EC90 (µM)
Just the number in µM, nothing appended.

                                   molecule  observed_property  quantitative_result
0  Cc1c(NC(=O)OC(C)(C)C)ccc2nc(N3C[C@H](OCc4ccccc4)C[C@H]3C(=O)N(C)CCc3ccncc3)oc(=O)c12 [Compound No.116]               EC90                  6.5
1  CCCCc1ccc(C(=O)Nc2ccc3nc(NC(C)(C)C(=O)N(C)CCc4ccccn4)oc(=O)c3c2C)cc1 [Compound No.167]               EC90                  3.6

Now look at this entry.
// returns reported EC90 for input Cc1c(NC(=O)OC(C)(C)C)ccc2nc(N(C)[C@@H](Cc3ccccc3)C(=O)N(C)CCc3cccnc3)oc(=O)c12 [Compound No.84] 11

###

- System: Vero cells
- ASSAY_DETAILS: Cytotoxicity, Vero cells, Alamar Blue
- Assay type: cell-based
- CONDITION_INFO: 25 μM, 20 hours
OBSERVED_PROPERTY: Cell viability (% of control) (%)
Just the number in %, nothing appended.

Please review the entries below; each comes with its answer.
>>> df
                                   compound  units_of_measure  quantitative_result
0  Cc1c(NC(=O)OC(C)(C)C)ccc2nc(N[C@@H](CC(C)C)C(=O)N(C)Cc3ccccn3)oc(=O)c12 [Compound No.62]                 %                 83.9
1  Cc1c(NC(=O)c2cccc3ccccc23)ccc2nc(NC(C)(C)C(=O)N(C)CCc3ccccn3)oc(=O)c12 [Compound No.190]                 %                 74.5
2  Cc1c(NC(=O)OC(C)(C)C)ccc2nc(N(C)[C@@H](C)C(=O)N(C)Cc3ccccn3)oc(=O)c12 [Compound No.75]                 %                 93.1
3  Cc1c(NC(=O)OC(C)(C)C)ccc2nc(N(C)[C@@H](C)C(=O)N(C)CCc3ccncc3)oc(=O)c12 [Compound No.78]                 %                 90.7
4  Cc1c(NC(=O)OC(C)(C)C)ccc2nc(N3CCCC[C@H]3C(=O)NCc3cccnc3)oc(=O)c12 [Compound No.103]                 %                 68.9

// returns reported Cell viability (% of control) for input Cc1c(NC(=O)C2CCC2)ccc2nc(NC(C)(C)C(=O)N(C)CCc3ccccn3)oc(=O)c12 [Compound No.198] 99.2

Entry to check: Cc1c(NC(=O)CCCNC(=O)c2ccccn2)ccc2nc(NC(C)(C)C(=O)N(C)CCc3ccccn3)oc(=O)c12 [Compound No.221] 105.3

Entry to check: Cc1c(NC(=O)OC(C)(C)C)ccc2nc(N3C[C@H](OCc4ccccc4)C[C@H]3C(=O)NCc3cccnc3)oc(=O)c12 [Compound No.110] 71.9
